B1: C10orf62 (parent)
chain: TSECPSDKDKSPESHKAKNESWIK

# Variants of: B1
# method_summary: protein stability index of a GFP-peptide fusion (GPS, HEK-293T) (PSI 1-6); higher = more stable;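 further: lentivirally expressed fusions sorted by FACS into six bins by GFP to DsRed ratio, PSI derived from sequencing read proportions per bin multiplied by bin number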
# applied_conditions: c terminus: a fixed tail appended
Tick rule met if protein stability index is 3 or greater. Tick rule not met if protein stability index is less than 3.

P12S ... rule not met
C4A ... rule met
K8P ... rule met
W22P ... rule met
S6W ... rule not met

From here, focus on the item given below.
Lookup: Does protein stability index meet or surpass 3 for "S11E" ?
Found: rule met
